Consider the following compounds; for each one, report its RLU / cell transfection efficiency, times that of compound 21.
Tested on: 293T cells
Experiment: Fluorescence detection of Fluc-mRNA (cell transfection efficiency of LNP formulations)
Format: cell-based
Settings: Fluc-mRNA LNP
From the text: Cell recovery and passaging: 293T cells were recovered and cultured in culture dishes to the required cell number. Plating: The cells in the culture dish were digested, counted, plated in a 96-well plate at 10,000 cells per well, or in a 12-well plate at 150,000 cells per well, and cultured overnight until the cells adhered to the wall. Cell recovery and passage: The method was the same as in Example 3. Plating: The method was the same as Example 3. […]
Give just the number in times; leave the unit off.

I have this compound here, CCCCCCCCCCCOC(=O)CCCCCN(CCCCCCCC(=O)OC(CCCCCCC)CCCCCCC)CCN(C)CCO [YK-206] , and I need its recorded RLU / cell transfection efficiency, times that of compound 21. 14

Query (compound): CCCCCCCCCCOC(=O)CCCN(CCCCCC(=O)OCC(CCCCCCCC)CCCCCCCC)CCN(C)CCO [YK-207] ; field requested: RLU / cell transfection efficiency, times that of compound 21 14

I'd like to know its RLU / cell transfection efficiency, times that of compound 21. The compound in question is CCCCCCCCCCCOC(=O)CCCCCN(CCCCCCCC(=O)OC(CCCCCCCC)CCCCCCCC)CCN(C)CCO [YK-201] 20.04

# RLU / cell transfection efficiency, times that of compound 21 lookup, item CCCCCCCCC(CCCCCCCC)COC(=O)CCCCCN(CCCCCC(=O)OCC(CCCCCCCC)CCCCCCCC)CCN(C)CCO [YK-209] 18.90
